pIC50 reference
- systemName: UniProt Q00975
- Sequence (Q00975 whole entry): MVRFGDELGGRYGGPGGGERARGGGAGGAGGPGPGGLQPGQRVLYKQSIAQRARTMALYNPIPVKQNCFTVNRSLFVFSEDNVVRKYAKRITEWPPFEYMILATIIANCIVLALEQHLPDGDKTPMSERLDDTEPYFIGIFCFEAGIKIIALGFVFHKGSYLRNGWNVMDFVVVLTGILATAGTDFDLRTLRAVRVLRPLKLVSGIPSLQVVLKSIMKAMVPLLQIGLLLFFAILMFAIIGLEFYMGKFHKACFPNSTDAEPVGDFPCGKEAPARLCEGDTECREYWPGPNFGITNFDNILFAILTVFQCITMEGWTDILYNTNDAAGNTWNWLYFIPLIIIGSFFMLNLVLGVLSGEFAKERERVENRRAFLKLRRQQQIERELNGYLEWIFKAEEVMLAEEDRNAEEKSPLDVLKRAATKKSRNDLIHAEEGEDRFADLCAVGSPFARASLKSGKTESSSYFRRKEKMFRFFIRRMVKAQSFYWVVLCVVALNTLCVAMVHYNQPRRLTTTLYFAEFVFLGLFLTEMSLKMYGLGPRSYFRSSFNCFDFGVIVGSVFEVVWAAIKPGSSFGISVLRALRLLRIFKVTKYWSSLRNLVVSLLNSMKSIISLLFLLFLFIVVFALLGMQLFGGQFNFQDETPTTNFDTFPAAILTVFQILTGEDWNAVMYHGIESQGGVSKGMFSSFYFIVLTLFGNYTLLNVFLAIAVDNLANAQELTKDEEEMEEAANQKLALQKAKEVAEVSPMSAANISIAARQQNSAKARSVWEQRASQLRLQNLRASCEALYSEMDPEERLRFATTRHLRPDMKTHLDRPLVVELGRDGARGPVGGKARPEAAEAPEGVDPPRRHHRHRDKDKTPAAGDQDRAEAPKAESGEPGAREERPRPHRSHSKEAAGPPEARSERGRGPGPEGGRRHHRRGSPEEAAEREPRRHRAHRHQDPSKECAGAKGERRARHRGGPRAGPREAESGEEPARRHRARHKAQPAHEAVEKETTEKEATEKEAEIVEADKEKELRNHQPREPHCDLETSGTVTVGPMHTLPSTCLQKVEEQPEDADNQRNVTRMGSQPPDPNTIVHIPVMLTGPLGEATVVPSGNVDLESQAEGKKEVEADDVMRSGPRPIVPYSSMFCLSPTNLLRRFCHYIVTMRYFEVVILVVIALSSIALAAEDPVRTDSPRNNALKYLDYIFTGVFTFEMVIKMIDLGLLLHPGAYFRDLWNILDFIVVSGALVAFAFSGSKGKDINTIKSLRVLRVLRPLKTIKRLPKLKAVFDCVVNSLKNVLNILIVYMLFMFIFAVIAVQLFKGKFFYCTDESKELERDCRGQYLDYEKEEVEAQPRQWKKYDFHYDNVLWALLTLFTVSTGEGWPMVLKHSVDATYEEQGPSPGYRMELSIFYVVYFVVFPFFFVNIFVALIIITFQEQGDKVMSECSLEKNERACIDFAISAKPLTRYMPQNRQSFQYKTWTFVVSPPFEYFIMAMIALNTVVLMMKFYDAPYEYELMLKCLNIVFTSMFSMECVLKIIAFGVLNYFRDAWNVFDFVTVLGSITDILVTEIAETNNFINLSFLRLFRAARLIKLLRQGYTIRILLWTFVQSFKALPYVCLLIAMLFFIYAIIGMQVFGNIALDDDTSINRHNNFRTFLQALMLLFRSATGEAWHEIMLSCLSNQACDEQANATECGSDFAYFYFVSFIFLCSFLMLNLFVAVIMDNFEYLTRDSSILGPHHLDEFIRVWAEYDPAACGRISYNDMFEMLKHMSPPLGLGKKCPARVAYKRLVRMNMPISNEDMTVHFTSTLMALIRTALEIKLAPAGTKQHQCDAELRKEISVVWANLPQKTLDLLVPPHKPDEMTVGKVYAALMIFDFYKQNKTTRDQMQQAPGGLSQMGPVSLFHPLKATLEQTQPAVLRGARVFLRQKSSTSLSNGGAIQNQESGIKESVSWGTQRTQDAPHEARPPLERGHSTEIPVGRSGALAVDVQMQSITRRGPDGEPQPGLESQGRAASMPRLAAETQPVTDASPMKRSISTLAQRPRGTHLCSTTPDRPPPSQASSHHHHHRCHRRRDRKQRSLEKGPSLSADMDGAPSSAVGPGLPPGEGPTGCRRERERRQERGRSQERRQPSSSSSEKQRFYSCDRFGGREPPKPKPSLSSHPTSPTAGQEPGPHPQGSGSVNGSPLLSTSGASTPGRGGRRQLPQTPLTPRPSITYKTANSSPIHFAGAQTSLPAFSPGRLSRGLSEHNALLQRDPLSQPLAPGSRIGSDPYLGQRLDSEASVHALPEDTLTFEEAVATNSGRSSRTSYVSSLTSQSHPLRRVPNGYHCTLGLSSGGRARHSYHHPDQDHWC
- Sequence (P54284 whole entry partner): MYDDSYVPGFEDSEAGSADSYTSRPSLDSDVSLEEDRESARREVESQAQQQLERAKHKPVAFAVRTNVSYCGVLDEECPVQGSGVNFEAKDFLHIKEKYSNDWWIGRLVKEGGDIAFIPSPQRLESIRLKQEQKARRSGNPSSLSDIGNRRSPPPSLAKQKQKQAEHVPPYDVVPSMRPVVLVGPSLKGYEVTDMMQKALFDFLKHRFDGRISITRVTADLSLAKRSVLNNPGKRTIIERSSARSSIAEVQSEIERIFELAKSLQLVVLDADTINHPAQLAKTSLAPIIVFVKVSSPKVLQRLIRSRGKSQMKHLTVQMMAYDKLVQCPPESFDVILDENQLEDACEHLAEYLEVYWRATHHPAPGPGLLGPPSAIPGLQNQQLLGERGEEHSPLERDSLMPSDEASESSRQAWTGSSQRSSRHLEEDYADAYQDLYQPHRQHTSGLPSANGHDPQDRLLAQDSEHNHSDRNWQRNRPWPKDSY
- Sequence (P54289 25-956 partner limits assumed): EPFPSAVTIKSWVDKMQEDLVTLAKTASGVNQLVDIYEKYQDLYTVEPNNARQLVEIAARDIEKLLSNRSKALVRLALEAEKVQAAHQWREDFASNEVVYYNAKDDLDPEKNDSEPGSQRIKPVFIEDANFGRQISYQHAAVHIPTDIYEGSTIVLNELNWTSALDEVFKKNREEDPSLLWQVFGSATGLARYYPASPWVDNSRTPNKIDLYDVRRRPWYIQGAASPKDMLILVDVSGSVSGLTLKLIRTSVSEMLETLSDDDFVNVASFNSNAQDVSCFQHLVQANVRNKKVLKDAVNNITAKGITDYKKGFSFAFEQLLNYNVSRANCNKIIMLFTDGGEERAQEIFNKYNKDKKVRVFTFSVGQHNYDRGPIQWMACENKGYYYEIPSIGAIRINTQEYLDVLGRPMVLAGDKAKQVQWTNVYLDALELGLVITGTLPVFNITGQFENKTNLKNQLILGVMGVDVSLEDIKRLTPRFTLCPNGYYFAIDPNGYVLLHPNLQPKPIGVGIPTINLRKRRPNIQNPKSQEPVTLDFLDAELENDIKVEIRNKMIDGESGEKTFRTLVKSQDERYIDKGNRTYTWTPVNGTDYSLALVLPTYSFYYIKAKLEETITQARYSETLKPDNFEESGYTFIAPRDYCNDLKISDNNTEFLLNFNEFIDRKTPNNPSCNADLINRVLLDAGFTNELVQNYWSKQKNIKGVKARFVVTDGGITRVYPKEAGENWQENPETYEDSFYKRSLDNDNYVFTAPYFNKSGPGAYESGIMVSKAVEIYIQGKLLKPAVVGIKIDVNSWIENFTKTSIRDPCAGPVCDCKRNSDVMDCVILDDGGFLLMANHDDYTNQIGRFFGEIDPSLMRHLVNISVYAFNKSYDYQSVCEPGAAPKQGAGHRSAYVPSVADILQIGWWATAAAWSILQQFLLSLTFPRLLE
- Sequence (P54289 957-1103 partner limits assumed): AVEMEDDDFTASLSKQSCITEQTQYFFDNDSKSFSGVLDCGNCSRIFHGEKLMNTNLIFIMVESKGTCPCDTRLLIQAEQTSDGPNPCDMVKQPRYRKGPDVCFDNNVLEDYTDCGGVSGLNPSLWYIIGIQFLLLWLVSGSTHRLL
- assayText: Electrophysiological response, QPatch (depolarization -80 mV to +20 mV)
- conditionInfo: N Type IC50 Data Qpatch Pulse=15, Pulse=15; concentration range 0.3-10 µM
# pIC50: negative log10 of molar concentration; output just the value

response.value for `COc1ccccc1-c1nc(C2CC(C)(C)OC(C)(C)C2)cn1-c1ccc(Br)c(F)c1` (field: pIC50) = 6.38

The measured pIC50 associated with `COc1ncccc1-c1nc(C2CC(C)(C)OC(C)(C)C2)c(Cl)n1-c1ccc(Cl)cc1` reads 5.74

The compound listed as `COc1ccccc1-c1nc(C2CC(C)(C)OC(C)(C)C2)cn1S(=O)(=O)c1ccc(Cl)cc1` shows pIC50 equal to 5.51

Value of pIC50 reported for the compound `COc1ccccc1-c1nc(C2CC(C)(C)OC(C)(C)C2)cn1-c1ccc(C#N)c(F)c1` is 5.55

Sample `COc1ccccc1-c1nc(C2CC(C)(C)OC(C)(C)C2)cn1-c1ccc(Cl)cc1` ; pIC50 observed: 6.11
